Just for reference, PubChem BioAssay (NCI) is where these values come from.

Parameter: TGI. Scope: all listed entries.
Test system: DU-145 prostate
protocol: NCI tumour cell line growth inhibition, 48 h
measured-metric: TGI

1. O=C(Nc1ccc(-n2ccc3c(NC(=O)c4ccccc4)ncnc32)cc1)Nc1ccc(Cl)c(C(F)(F)F)c1: 4.61 µM
2. OC1C2CCC3C2CC(C(O)(c2ccccc2)c2ccccc2)C13 (centres undefined): > 100 µM
3. CCCCCCCCCCCCCCC(C(=O)[O-])[n+]1ccccc1 (centres undefined): > 100 µM
4. O=C(CC(O)c1cccnc1)CC(O)c1cccnc1 (centres undefined): > 89.7 µM
5. Cc1ccc(N/N=C/C2=CC(C)(C)C(C#N)(C#N)C(O)=C2C#N)cc1: > 100 µM
6. Nc1nc(N)c2c(CCc3ccc(C(=O)N[C@@H](CCC(=O)O)C(=O)O)cc3)ccnc2n1: > 100 µM
7. C[C@]12CCC(=O)C=C1CC[C@@H]1[C@@H]2CC[C@]2(C)C(=O)/C(=C/c3ccncc3)C[C@@H]12: 29.2 µM
8. Cc1ccccc1NC(=O)N/C(N)=N/c1nc(C)c(C)s1: > 100 µM
9. CC1=CC[C@@H]2[C@@H](CC[C@@]2(C)O)C(C)(C)[C@H]1CC[C@@H]1[C@@]2(C)CC[C@@H](O)C(C)(C)O[C@@H]2CC[C@]1(C)O: > 100 µM
10. COc1ccc(-c2cnc(SCC(=O)c3c(C)n(C)n(-c4ccccc4)c3=O)n2-c2ccc(OC)cc2)cc1: > 50 µM
11. COc1ccc2c3c(ccc2c1)NC(C(=O)O)CC3 (centres undefined): > 100 µM
12. Nc1cc(N2CCOCC2)nc(=O)n1-c1ccccc1: > 100 µM
13. Cc1cc(NCCCNc2ccnc3cc(Cl)ccc23)nc(Nc2ccc(C(=O)N3CCCCC3)cc2)n1: 13.1 µM
14. Nc1nc2ccccc2c2[nH]c3ccccc3c12: 10.5 µM

###

Parameter: TGI. Scope: all listed entries.
Tested on: SK-OV-3 ovarian
protocol: NCI tumour cell line growth inhibition, 48 h
measured-metric: TGI

1. O=c1ncc(I)c[nH]1: > 100 µM
2. COc1ccc2c(c1)[n+]([O-])c(/C(C)=N/NC(N)=S)c(C)[n+]2[O-]: > 100 µM
3. OCC(O)C(O)C(O)c1nn[nH]n1 (stereo not drawn): > 100 µM

###

Test system: SK-MEL-5 melanoma
protocol: NCI tumour cell line growth inhibition, 48 h
measured-metric: TGI

1) CCCCCCCCCCCCCCC(C(=O)[O-])[n+]1ccccc1 (stereo unspecified): > 100 µM
2) CCOc1cc(/C=N\O)cc(/C=N/O)c1O: 39.5 µM
3) CC(C)(C)c1cc(O)c2c(c1O)C(=O)CCC2: 39.2 µM
4) Oc1ccccc1/C=N/Nc1nc2ccccc2s1: > 100 µM
5) COc1cccc(-c2cc(C(=O)Nc3ccc(Cl)cc3)nc(N)n2)c1: > 100 µM
6) CC[C@]1(Cc2ccc(OC)c(OC)c2)C=[N+]([O-])O[C@H](OC2CCCCC2c2ccccc2)[C@@H]1OC(C)=O (stereo partly specified): > 100 µM
7) c1ccc(C2(c3ccccc3)S/C(=C3/SC(c4ccccc4)(c4ccccc4)c4ccccc43)c3ccccc32)cc1: > 100 µM
8) CN1CCN2c3ccccc3CC(C#N)(C#N)C2C1 (stereo unspecified): > 100 µM
9) O=C1CSC(c2c[nH]c3ccccc23)N1c1cccc([N+](=O)[O-])c1 (stereo unspecified): > 100 µM
10) COc1cc(C(=O)O)cc2c1[nH]c1ccccc12: > 25 µM
11) [O-]c1ccccc1[C-]=Nc1ccccc1O.[O-]c1ccccc1[C-]=Nc1ccccc1O.[O]=[U]=[O]: 43 µM
12) N=C(N)SC(c1ccccc1)c1ccccc1: 32.2 µM
13) Cc1nnc(N2C(=O)C(=Cc3ccc(Cl)cc3)N=C2c2ccc(Cl)cc2)nc1/C=C\c1ccc(N(C)C)cc1: > 100 µM
14) C=C(c1ccccc1)[C@@]1(O)CCCC[C@H]1NC(c1ccccc1)c1ccccc1: 22.8 µM
15) CCOP(=O)(OCC)c1cc2cc(O)ccc2oc1=O: > 100 µM
16) CN1C(=O)C(C)(C)NS1(=O)=O: > 100 µM
17) Nc1c(C(=O)c2cccc(C(O)(CO)CO)c2)cnn1-c1ccc(F)cc1: > 25 µM
18) Clc1ccc(C2ON=C(c3ccccc3)N2C23CC4CC(CC(C4)C2)C3)cc1Cl (stereo unspecified): > 10 µM
19) O=C(CC(O)c1cccnc1)CC(O)c1cccnc1 (stereo unspecified): 32.2 µM
20) CCC(C#N)NCc1ccc(CNC(C#N)CC)cc1 (stereo unspecified): > 100 µM
21) CSc1ccc(/C=C/C(=O)c2nc3ccccc3[nH]2)cc1: 57.8 µM
